# System: E. coli (ATCC No. 25922)
# assay.details: MIC, broth microdilution
# Type: cell-based, Escherichia coli
# particulars: Gemini-surfactant series S; 18 hours, 37° C.
property.measured: MIC EC (ppm)
Express your answer in ppm, writing the number without its unit.

Below, 8 compounds whose answers are already recorded.
{"compound": "CCCCCCCC[N+](C)(C)Cc1ccc(C(=O)NCCNC(=O)c2ccc(C[N+](C)(C)CCCCCCCC)cc2)cc1.[Cl-].[Cl-]", "value.unit": "ppm", "reported": 250}
{"compound": "CCCCCCCCCC[N+](C)(C)Cc1ccc(C(=O)NCCOCCOCCNC(=O)c2ccc(C[N+](C)(C)CCCCCCCCCC)cc2)cc1.[Cl-].[Cl-]", "value.unit": "ppm", "reported": 4}
{"compound": "CCCCCCCCCCCC[N+](C)(C)Cc1ccc(C(=O)NCc2cccc(CNC(=O)c3ccc(C[N+](C)(C)CCCCCCCCCCCC)cc3)c2)cc1.[Cl-].[Cl-]", "value.unit": "ppm", "reported": 8}
{"compound": "CCCCCCCC[N+](C)(C)Cc1ccc(C(=O)NCc2cccc(CNC(=O)c3ccc(C[N+](C)(C)CCCCCCCC)cc3)c2)cc1.[Cl-].[Cl-]", "value.unit": "ppm", "reported": 8}
{"compound": "CCCCCCCCCC[N+](C)(C)Cc1ccc(C(=O)OCCCCCCCCCCCCOC(=O)c2ccc(C[N+](C)(C)CCCCCCCCCC)cc2)cc1.[Cl-].[Cl-] [S-10g]", "value.unit": "ppm", "reported": 500}
{"compound": "CCCCCCCCCCCC[N+](C)(C)Cc1ccc(C(=O)NCCCOCCOCCOCCCNC(=O)c2ccc(C[N+](C)(C)CCCCCCCCCCCC)cc2)cc1.[Cl-].[Cl-]", "value.unit": "ppm", "reported": 2}
{"compound": "CCCCCCCCCC[N+](C)(C)Cc1ccc(C(=O)OCc2ccc(COC(=O)c3ccc(C[N+](C)(C)CCCCCCCCCC)cc3)cc2)cc1.[Cl-].[Cl-] [S-12g]", "value.unit": "ppm", "reported": 2}
{"compound": "CCCCCCCCCCCC[N+](C)(C)Cc1ccc(C(=O)NCCOCCOCCNC(=O)c2ccc(C[N+](C)(C)CCCCCCCCCCCC)cc2)cc1.[Cl-].[Cl-]", "value.unit": "ppm", "reported": 4}

QUERY: Identify the measured MIC EC of CCCCCCCCCC[N+](C)(C)Cc1ccc(C(=O)NCCCCCCNC(=O)c2ccc(C[N+](C)(C)CCCCCCCCCC)cc2)cc1.[Cl-].[Cl-] for E. coli (ATCC No. 25922).
RESULT: 1

QUERY: Param readout= MIC EC; system= E. coli (ATCC No. 25922); entry= CCCCCCCCCC[N+](C)(C)Cc1ccc(C(=O)NCCCOCCOCCOCCCNC(=O)c2ccc(C[N+](C)(C)CCCCCCCCCC)cc2)cc1.[Cl-].[Cl-] ; returns value.
RESULT: 4

---

# Tested on: rat red blood cells (rRBCs)
# assay.details: Hemolysis assay
# Type: cell-based
# particulars: Gemini-surfactant series S; 1 hour, 37° C.
property.measured: Hemolysis, HC50

{"molecule": "CCCCCCCCCCCC[N+](C)(C)Cc1ccc(C(=O)NCCOCCOCCNC(=O)c2ccc(C[N+](C)(C)CCCCCCCCCCCC)cc2)cc1.[Cl-].[Cl-]", "Hemolysis, HC50": "16-31 ppm"}

QUERY: Any idea what Hemolysis, HC50 was measured for CCCC[N+](C)(C)Cc1ccc(C(=O)NCCOCCOCCNC(=O)c2ccc(C[N+](C)(C)CCCC)cc2)cc1.[Cl-].[Cl-] ?
RESULT: >2000 ppm

QUERY: Need Hemolysis, HC50, item CCCCCCCCCCCC[N+](C)(C)Cc1ccc(C(=O)NCCNC(=O)c2ccc(C[N+](C)(C)CCCCCCCCCCCC)cc2)cc1.[Cl-].[Cl-] [S-1h]
RESULT: 125-250 ppm

QUERY: Entry under review: CCCCCCCCCC[N+](C)(C)Cc1ccc(C(=O)NCCCCCCOC(=O)c2ccc(C[N+](C)(C)CCCCCCCCCC)cc2)cc1.[Cl-].[Cl-] [S-13g] . Reported Hemolysis, HC50?
RESULT: 63-125 ppm

QUERY: Quick one: Hemolysis, HC50 of CCCCCCCCCC[N+](C)(C)Cc1ccc(C(=O)NCc2cccc(CNC(=O)c3ccc(C[N+](C)(C)CCCCCCCCCC)cc3)c2)cc1.[Cl-].[Cl-] ?
RESULT: 63-125 ppm

QUERY: Please report the recorded Hemolysis, HC50 for CCCCCCCCCC[N+](C)(C)Cc1ccc(C(=O)OCCCCCCOC(=O)c2ccc(C[N+](C)(C)CCCCCCCCCC)cc2)cc1.[Cl-].[Cl-] .
RESULT: 125-250 ppm

QUERY: Quick one: Hemolysis, HC50 of CCCCCCCC[N+](C)(C)Cc1ccc(C(=O)NCCNC(=O)c2ccc(C[N+](C)(C)CCCCCCCC)cc2)cc1.[Cl-].[Cl-] ?
RESULT: >2000 ppm

QUERY: Entry CCCCCCCCCC[N+](C)(C)Cc1ccc(C(=O)NCCCCCCNC(=O)c2ccc(C[N+](C)(C)CCCCCCCCCC)cc2)cc1.[Cl-].[Cl-] : reported Hemolysis, HC50 = ?
RESULT: 125-250 ppm

QUERY: Returns the measured Hemolysis, HC50 for the input molecule. Input: CCCCCCCCCCCC[N+](C)(C)Cc1ccc(C(=O)NCc2cccc(CNC(=O)c3ccc(C[N+](C)(C)CCCCCCCCCCCC)cc3)c2)cc1.[Cl-].[Cl-]
RESULT: 63-125 ppm

QUERY: Any idea what Hemolysis, HC50 was measured for CCCCCCCCCC[N+](C)(C)Cc1ccc(C(=O)NCCCOCCOCCOCCCNC(=O)c2ccc(C[N+](C)(C)CCCCCCCCCC)cc2)cc1.[Cl-].[Cl-] ?
RESULT: 250-500 ppm

QUERY: Entry under review: C=C(C)C(=O)OCC[N+](C)(C)Cc1ccc(C(=O)NCCOCCOCCNC(=O)c2ccc(C[N+](C)(C)CCOC(=O)C(=C)C)cc2)cc1.[Cl-].[Cl-] . Reported Hemolysis, HC50?
RESULT: >2000 ppm

QUERY: // lookup Hemolysis, HC50 for C[N+](C)(Cc1ccccc1)Cc1ccc(C(=O)NCCOCCOCCNC(=O)c2ccc(C[N+](C)(C)Cc3ccccc3)cc2)cc1.[Cl-].[Cl-]
RESULT: >2000 ppm

---

# Tested on: rat red blood cells (rRBCs)
# assay.details: Hemolysis assay
# Assay type: cell-based
# particulars: Gemini-surfactant series S; 1 hour, 37° C.
property.measured: Hemolysis, HC50

{"molecule": "CCCCCCCC[N+](C)(C)Cc1ccc(C(=O)NCCOCCOCCNC(=O)c2ccc(C[N+](C)(C)CCCCCCCC)cc2)cc1.[Cl-].[Cl-]", "Hemolysis, HC50": ">2000 ppm"}
{"molecule": "CCCCCCCC[N+](C)(C)Cc1ccc(C(=O)NCCCOCCOCCOCCCNC(=O)c2ccc(C[N+](C)(C)CCCCCCCC)cc2)cc1.[Cl-].[Cl-]", "Hemolysis, HC50": ">2000 ppm"}
{"molecule": "CCCCCCCCCC[N+](C)(C)Cc1ccc(C(=O)OCCCCCCCCCCCCOC(=O)c2ccc(C[N+](C)(C)CCCCCCCCCC)cc2)cc1.[Cl-].[Cl-] [S-10g]", "Hemolysis, HC50": "63-125 ppm"}
{"molecule": "CCCCCCCCCC[N+](C)(C)Cc1ccc(C(=O)OCc2ccc(COC(=O)c3ccc(C[N+](C)(C)CCCCCCCCCC)cc3)cc2)cc1.[Cl-].[Cl-] [S-12g]", "Hemolysis, HC50": "125-250 ppm"}
{"molecule": "CCCCCCCCCCCC[N+](C)(C)Cc1ccc(C(=O)NCCNC(=O)c2ccc(C[N+](C)(C)CCCCCCCCCCCC)cc2)cc1.[Cl-].[Cl-] [S-1g]", "Hemolysis, HC50": "125-250 ppm"}

Now consider the entry below.
QUERY: Look up Hemolysis, HC50 for this molecule: CCCCCCCCCC[N+](C)(C)Cc1ccc(C(=O)NCCOCCOCCNC(=O)c2ccc(C[N+](C)(C)CCCCCCCCCC)cc2)cc1.[Cl-].[Cl-]
RESULT: 125-250 ppm

---

# System: S. aureus (ATCC No. 6538)
# assay.details: MIC, broth microdilution
# Assay type: cell-based, Staphylococcus aureus
# particulars: Gemini-surfactant series S; 18 hours, 37° C.
property.measured: MIC SA (ppm)
Express the result in ppm but write the number alone.

Example entries and their recorded answers appear below.
{"compound": "CCCCCCCCCC[N+](C)(C)Cc1ccc(C(=O)OCCCCCCCCCCCCOC(=O)c2ccc(C[N+](C)(C)CCCCCCCCCC)cc2)cc1.[Cl-].[Cl-] [S-10g]", "target.or.test.system": "S. aureus (ATCC No. 6538)", "MIC SA [ppm]": 16}
{"compound": "CCCCCCCCCCCC[N+](C)(C)Cc1ccc(C(=O)NCc2cccc(CNC(=O)c3ccc(C[N+](C)(C)CCCCCCCCCCCC)cc3)c2)cc1.[Cl-].[Cl-]", "target.or.test.system": "S. aureus (ATCC No. 6538)", "MIC SA [ppm]": 8}
{"compound": "CCCCCCCC[N+](C)(C)Cc1ccc(C(=O)NCCOCCOCCNC(=O)c2ccc(C[N+](C)(C)CCCCCCCC)cc2)cc1.[Cl-].[Cl-]", "target.or.test.system": "S. aureus (ATCC No. 6538)", "MIC SA [ppm]": 31}
{"compound": "CCCCCCCCCC[N+](C)(C)Cc1ccc(C(=O)NCCCOCCOCCOCCCNC(=O)c2ccc(C[N+](C)(C)CCCCCCCCCC)cc2)cc1.[Cl-].[Cl-]", "target.or.test.system": "S. aureus (ATCC No. 6538)", "MIC SA [ppm]": 2}

Query compound follows.
QUERY: // lookup MIC SA for CCCCCCCCCC[N+](C)(C)Cc1ccc(C(=O)OCc2ccc(COC(=O)c3ccc(C[N+](C)(C)CCCCCCCCCC)cc3)cc2)cc1.[Cl-].[Cl-] [S-12g]
RESULT: 1

Provenance of the data: patent US11198761B2
